// provenance: ChEMBL document CHEMBL5126537

- procedureText: Cytotoxicity against MDCK cells
- Format: toxicity, cell-based, Canis lupus familiaris
- conditionParameters: dog
assayEndpoint: CC50

Look at this compound and give its reported CC50. NC(=O)c1nc(F)c[nH]c1=O [FAVIPIRAVIR] > 2000 µg/mL

----------
- Tested on: Influenza A virus
- procedureText: Antiviral activity against Influenza A virus A/PR/8/34 (H1N1) infected in MDCK cells assessed as inhibition of viral entry preincubated for 1 hr followed by infection in MDCK cells measured after 1 hr by focus forming assay
- Format: functional, organism-based
assayEndpoint: IC50

Look at this compound and give its reported IC50. COc1cc(OC)c2c(=O)c(O)c(-c3ccc(OC)c(OC)c3)oc2c1 36 µM
